Data provenance is ChEMBL document CHEMBL5518245.

Each entry below carries its measured IC50, system: Voltage-gated inwardly rectifying potassium channel KCNH2 (Homo sapiens, UniProt Q12809).
Sequence (Q12809 whole entry): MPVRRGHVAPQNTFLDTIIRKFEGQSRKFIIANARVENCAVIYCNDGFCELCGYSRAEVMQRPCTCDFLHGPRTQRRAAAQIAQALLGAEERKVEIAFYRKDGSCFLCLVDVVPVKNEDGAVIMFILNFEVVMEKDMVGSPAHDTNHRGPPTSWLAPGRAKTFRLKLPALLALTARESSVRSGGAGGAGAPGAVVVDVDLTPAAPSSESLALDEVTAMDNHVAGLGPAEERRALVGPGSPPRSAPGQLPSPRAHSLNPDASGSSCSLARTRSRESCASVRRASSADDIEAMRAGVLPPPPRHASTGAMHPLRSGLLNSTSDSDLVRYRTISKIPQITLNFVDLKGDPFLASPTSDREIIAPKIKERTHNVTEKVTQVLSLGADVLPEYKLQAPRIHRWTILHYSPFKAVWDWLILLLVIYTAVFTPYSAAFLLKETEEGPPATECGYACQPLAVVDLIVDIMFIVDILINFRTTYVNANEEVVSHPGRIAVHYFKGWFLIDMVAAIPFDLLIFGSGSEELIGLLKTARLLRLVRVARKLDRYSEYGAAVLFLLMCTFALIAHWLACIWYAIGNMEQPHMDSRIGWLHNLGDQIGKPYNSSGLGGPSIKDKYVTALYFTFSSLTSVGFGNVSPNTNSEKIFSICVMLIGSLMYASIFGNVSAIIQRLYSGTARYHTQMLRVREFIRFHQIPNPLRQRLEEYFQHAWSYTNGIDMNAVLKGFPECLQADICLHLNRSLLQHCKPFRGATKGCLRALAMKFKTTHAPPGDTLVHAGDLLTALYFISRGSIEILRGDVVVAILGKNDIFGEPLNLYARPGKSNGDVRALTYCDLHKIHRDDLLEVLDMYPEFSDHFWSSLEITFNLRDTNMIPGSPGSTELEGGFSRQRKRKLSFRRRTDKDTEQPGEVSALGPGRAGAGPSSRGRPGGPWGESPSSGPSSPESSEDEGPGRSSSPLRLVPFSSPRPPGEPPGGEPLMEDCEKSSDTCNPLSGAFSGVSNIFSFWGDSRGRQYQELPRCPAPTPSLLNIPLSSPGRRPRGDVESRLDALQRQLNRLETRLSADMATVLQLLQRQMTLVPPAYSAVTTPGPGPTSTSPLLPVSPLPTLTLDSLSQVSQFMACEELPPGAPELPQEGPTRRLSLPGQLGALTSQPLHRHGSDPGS
One number for each entry, in µM.

Example entries and their recorded answers appear below.
N[C@@H]1CCCN(C(=O)c2ccc(-c3ccc4ncc(-c5cc6ccccc6o5)n4c3)cc2)C1 4.66
CN(C)C1CCN(C(=O)c2ccc(-c3ccc4ncc(-c5cc6ccccc6o5)n4n3)cc2)CC1 2.97
NC1CCN(C(=O)c2ccc(-c3ccc4ncc(-c5cc6ccccc6o5)n4c3)cc2)CC1 4.4

State recorded IC50 for all listed compounds.
1. CN(C)C1CCN(C(=O)c2ccc(-c3ccc4ncc(-c5cc6ccccc6o5)n4c3)cc2)CC1
2. N[C@@H]1CCCN(C(=O)c2ccc(-c3ccc4ncc(-c5cc6ccccc6o5)n4n3)cc2)C1
3. NC1CCN(C(=O)c2ccc(-c3ccc4ncc(-c5cc6ccccc6o5)n4n3)cc2)CC1

1.03
5.82
7.98

====

Tested on: PC-3
Test: cells
Conditions: Homo sapiens, PC-3, 72 h
REPORTED_METRIC: IC50 (µM)
Numbers only, in µM.

Could you tell me which IC50 is on file for `Cc1cc(Nc2cc(N)ncn2)c(=O)n2c1C(=O)NC21CCCCC1` ? 29.4

====

System: DOHH-2
Experiment: cells
Settings: Homo sapiens, DOHH-2, 72 h
REPORTED_METRIC: IC50 (µM)
Give bare numbers, in µM.

Could you tell me which IC50 is on file for `Cc1cc(Nc2cc(N)ncn2)c(=O)n2c1C(=O)NC21CCCCC1` ? 6.3

====

Test system: TMD8
Test: cells
Conditions: Homo sapiens, TMD8, 72 h
REPORTED_METRIC: IC50

Could you tell me which IC50 is on file for Cc1cc(Nc2cc(N)ncn2)c(=O)n2c1C(=O)NC21CCCCC1 [TOMIVOSERTIB] ? > 50 µM
